# reported IC50; entries follow
target: USP7 (Homo sapiens, UniProt Q93009)
Sequence (Q93009 whole entry): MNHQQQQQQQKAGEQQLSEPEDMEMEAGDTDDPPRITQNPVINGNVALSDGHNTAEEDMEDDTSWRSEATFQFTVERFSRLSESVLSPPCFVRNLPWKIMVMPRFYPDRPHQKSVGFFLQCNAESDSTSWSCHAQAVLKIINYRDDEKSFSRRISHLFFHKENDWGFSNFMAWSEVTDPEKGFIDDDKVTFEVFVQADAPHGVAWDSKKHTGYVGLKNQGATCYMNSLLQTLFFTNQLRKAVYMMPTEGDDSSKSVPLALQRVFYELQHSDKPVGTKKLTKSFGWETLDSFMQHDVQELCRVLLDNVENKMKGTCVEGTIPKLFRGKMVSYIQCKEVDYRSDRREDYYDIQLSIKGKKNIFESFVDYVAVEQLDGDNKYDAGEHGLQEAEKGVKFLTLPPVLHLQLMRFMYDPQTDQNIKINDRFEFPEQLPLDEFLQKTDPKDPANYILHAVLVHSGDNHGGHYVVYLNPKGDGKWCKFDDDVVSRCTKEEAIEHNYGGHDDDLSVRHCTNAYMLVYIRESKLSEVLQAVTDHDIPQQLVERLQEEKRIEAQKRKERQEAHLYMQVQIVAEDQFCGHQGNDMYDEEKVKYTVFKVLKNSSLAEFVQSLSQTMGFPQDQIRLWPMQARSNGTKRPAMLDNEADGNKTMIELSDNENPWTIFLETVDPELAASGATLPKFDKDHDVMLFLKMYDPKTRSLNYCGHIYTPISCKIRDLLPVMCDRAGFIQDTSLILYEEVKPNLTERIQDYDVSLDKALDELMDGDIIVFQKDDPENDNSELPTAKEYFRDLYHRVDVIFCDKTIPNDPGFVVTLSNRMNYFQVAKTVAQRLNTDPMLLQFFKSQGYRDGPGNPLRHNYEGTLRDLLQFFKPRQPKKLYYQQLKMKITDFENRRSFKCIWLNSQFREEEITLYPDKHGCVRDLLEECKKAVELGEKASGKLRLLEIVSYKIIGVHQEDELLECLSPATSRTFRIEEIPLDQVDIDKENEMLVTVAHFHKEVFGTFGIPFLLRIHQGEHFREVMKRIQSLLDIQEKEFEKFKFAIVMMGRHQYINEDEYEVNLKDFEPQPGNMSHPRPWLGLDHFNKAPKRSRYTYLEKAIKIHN

Below: 5 molecules and their reported IC50.
| Molecule | IC50 |
| --- | --- |
| CO[C@H]1CNC[C@@H]1N1CCCc2cc(Cl)cc(-c3ccnc4cc(CN5C(=O)CCC5=O)sc34)c21 (single isomer, unassigned) [Example 97a] | 101 to 1000 nM |
| Cn1cc(Cc2cc3nccc(-c4cc(Cl)cc5c4N([C@@H]4CCNC4)CCC5)c3s2)nn1 (single isomer, unassigned) [Example 98] | 101 to 1000 nM |
| O=C1CN(C2CC(F)(F)C2)C(=O)N1Cc1cc2nccc(-c3cc(Cl)cc4c3N([C@@H]3CNC5(CCC5)C3)CCC4)c2s1 [Example 159] | < 10 nM |
| Cc1cnn(Cc2cc3nccc(-c4cc(C#N)cc5c4N(C4CNC(C)(C)C4)CCC5)c3s2)c(=O)c1 (single isomer, unassigned) [Example 120b] | 101 to 1000 nM |
| Cc1cnn(Cc2cc3nccc(-c4cc(C#N)cc5c4N(C4CNC6(CCC6)C4)CCC5)c3s2)c(=O)c1 (single isomer, unassigned) [Example 164b] | 101 to 1000 nM |

# input Recall the recorded IC50 for C[C@]1(CO)C[C@H](N2CCOc3cc(C(F)(F)F)cc(-c4ccnc5cc(CN6C(=O)CCC6=O)sc45)c32)CN1 [Example 224] with USP7 (Homo sapiens, UniProt Q93009) and state it.
# output < 10 nM

* * *

biological target: USP7 (Homo sapiens, UniProt Q93009);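 also: fluorescence intensity readout of USP7 enzymatic activity, reaction incubated 90 min at room temperature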
pIC50: −log10 of the molar value.
Readout label: pIC50

Below: 5 compounds and their reported pIC50.
| Compound | pIC50 |
| --- | --- |
| O=c1ccn(CC2CC2)c(=O)n1Cc1cc2nccc(-c3cc(Cl)cc4c3N([C@H]3CCNC3)CCC4)c2s1 | > 8.00 |
| N#Cc1cc(-c2ccnc3cc(CN4C(=O)CCC4=O)sc23)c2c(c1)[C@@H]1C[C@@H]1CN2[C@@H]1CNC2(CCC2)C1 | > 8.00 |
| O=C1COC(=O)N1Cc1cc2nccc(-c3cc(Cl)cc4c3N(C3CNC3)CCC4)c2s1 | 7.00 to 8.00 |
| O=c1ccn(C(F)F)c(=O)n1Cc1cc2nccc(-c3cc(Cl)cc4c3N([C@@H]3CNC5(CCC5)C3)CCC4)c2s1 | > 8.00 |
| CC1(C)C[C@@H](N2CCCc3cc(Cl)cc(-c4ccnc5cc(Cn6c(=O)ccn(CC(F)(F)F)c6=O)sc45)c32)CN1 (single isomer, unassigned) [Example 118a] | 7.00 to 8.00 |

# input Recall the recorded pIC50 for `CC(F)(F)CCn1ccc(=O)n(Cc2cc3nccc(-c4cc(Cl)cc5c4N([C@H]4CCNC4)CCC5)c3s2)c1=O` with USP7 (Homo sapiens, UniProt Q93009) and state it.
# output > 8.00

# input Recall the recorded pIC50 for `O=c1ccn(CC(F)(F)F)c(=O)n1Cc1cc2nccc(-c3cc(Cl)cc4c3N([C@H]3CCNC3)CCC4)c2s1` with USP7 (Homo sapiens, UniProt Q93009) and state it.
# output > 8.00

# input Recall the recorded pIC50 for `O=c1cc(CC(F)F)cnn1Cc1cc2nccc(-c3cc(Cl)cc4c3N([C@H]3CCNC3)CCC4)c2s1` with USP7 (Homo sapiens, UniProt Q93009) and state it.
# output > 8.00

# input Recall the recorded pIC50 for Cc1ccnn(Cc2cc3nccc(-c4cc(C(F)(F)F)cc5c4N([C@@H]4CNC6(CCC6)C4)CCO5)c3s2)c1=O [Example 176b] with USP7 (Homo sapiens, UniProt Q93009) and state it.
# output > 8.00
